Exercise: state measured %-inhibition, BRAF for each of the compounds provided.
Assayed target: panel of more than 300 wild-type and mutant kinases (313 kinase panel) (Homo sapiens)
Experiment: Kinase profiling in a biochemical assay panel (mobility shift assays and ELISA), %-inhibition at 1 μM; selectivity entropy
Experimental conditions: kinase BRAF; 1 μM compound
Unit % implied. Number only.

Name the recorded %-inhibition, BRAF for CC(=O)Nc1cccc(-n2c(=O)n(C3CC3)c(=O)c3c(Nc4ccc(I)cc4F)n(C)c(=O)c(C)c32)c1 .
78

Here is the next compound: COc1cc2c(Nc3ccc(Br)cc3F)ncnc2cc1OCC1CCN(C)CC1
24

Now consider Cc1ccc(C(=O)Nc2ccc(CN3CCN(C)CC3)c(C(F)(F)F)c2)cc1C#Cc1cnc2cccnn12 .
89

Same for CO[C@H]1C[C@@H]2CC[C@@H](C)[C@@](O)(O2)C(=O)C(=O)N2CCCC[C@H]2C(=O)O[C@H]([C@H](C)C[C@@H]2CC[C@@H](OC(=O)C(C)(CO)CO)[C@H](OC)C2)CC(=O)[C@H](C)/C=C(\C)[C@@H](O)[C@@H](OC)C(=O)[C@H](C)C[C@H](C)/C=C/C=C/C=C/1C
-3.36

----------
Assayed target: panel of more than 300 wild-type and mutant kinases (313 kinase panel) (Homo sapiens, UniProt Q9P286)
Sequence (Q9P286 whole entry, change not shown): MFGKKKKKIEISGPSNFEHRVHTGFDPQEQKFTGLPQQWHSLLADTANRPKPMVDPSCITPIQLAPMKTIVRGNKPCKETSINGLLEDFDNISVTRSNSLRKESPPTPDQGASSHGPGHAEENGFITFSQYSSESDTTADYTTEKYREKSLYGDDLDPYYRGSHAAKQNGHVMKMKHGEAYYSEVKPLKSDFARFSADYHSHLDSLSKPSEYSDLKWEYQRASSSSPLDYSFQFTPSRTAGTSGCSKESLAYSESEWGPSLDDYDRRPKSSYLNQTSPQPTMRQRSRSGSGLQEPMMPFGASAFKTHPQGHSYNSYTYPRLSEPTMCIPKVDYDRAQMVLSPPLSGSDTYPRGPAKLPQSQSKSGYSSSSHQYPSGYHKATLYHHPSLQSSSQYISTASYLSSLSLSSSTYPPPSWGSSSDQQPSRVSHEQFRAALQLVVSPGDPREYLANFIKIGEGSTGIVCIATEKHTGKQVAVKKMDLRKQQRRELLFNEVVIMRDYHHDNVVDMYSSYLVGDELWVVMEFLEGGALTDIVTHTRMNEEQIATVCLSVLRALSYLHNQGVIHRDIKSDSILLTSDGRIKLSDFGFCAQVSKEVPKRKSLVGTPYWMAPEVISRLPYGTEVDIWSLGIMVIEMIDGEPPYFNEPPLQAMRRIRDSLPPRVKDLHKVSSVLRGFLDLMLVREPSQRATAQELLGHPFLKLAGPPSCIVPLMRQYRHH
Experiment: Kinase profiling in a biochemical assay panel (mobility shift assays and ELISA), %-inhibition at 1 μM; selectivity entropy
Experimental conditions: kinase PAK5; 1 μM
Quantity measured: %-inhibition of PAK5 (%)
Use % as the unit, but write only the number.

Consider the molecule shown here: COc1cc2c(Nc3ccc(Br)cc3F)ncnc2cc1OCC1CCN(C)CC1 What is its recorded %-inhibition of PAK5?
-3.26

Same again, this time with CCCS(=O)(=O)Nc1ccc(F)c(C(=O)c2c[nH]c3ncc(-c4ccc(Cl)cc4)cc23)c1F
-1.23

Input O=S(=O)(c1cccc2cnccc12)N1CCCNCC1
-6.61

// next record COc1cc2nccc(Oc3ccc(NC(=O)C4(C(=O)Nc5ccc(F)cc5)CC4)cc3)c2cc1OC [cabozantinib]
-2.51

Field entry: CO[C@H]1C[C@@H]2CC[C@@H](C)[C@@](O)(O2)C(=O)C(=O)N2CCCC[C@H]2C(=O)O[C@H]([C@H](C)C[C@@H]2CC[C@@H](OC(=O)C(C)(CO)CO)[C@H](OC)C2)CC(=O)[C@H](C)/C=C(\C)[C@@H](O)[C@@H](OC)C(=O)[C@H](C)C[C@H](C)/C=C/C=C/C=C/1C
-6

Entry to check: CC(=O)Nc1cccc(-n2c(=O)n(C3CC3)c(=O)c3c(Nc4ccc(I)cc4F)n(C)c(=O)c(C)c32)c1
-2.62

Field entry: CO[C@H]1C[C@@H]2CC[C@@H](C)[C@@](O)(O2)C(=O)C(=O)N2CCCC[C@H]2C(=O)O[C@H]([C@H](C)C[C@@H]2CC[C@@H](OCCO)[C@H](OC)C2)CC(=O)[C@H](C)/C=C(\C)[C@@H](O)[C@@H](OC)C(=O)[C@H](C)C[C@H](C)/C=C/C=C/C=C/1C
-1.87

Can you check CNC(=O)c1cc(Oc2ccc(NC(=O)Nc3ccc(Cl)c(C(F)(F)F)c3)c(F)c2)ccn1 next?
-8

Repeat for the following molecule: N#CC[C@H](C1CCCC1)n1cc(-c2ncnc3[nH]ccc23)cn1
14

Another molecule to look at: CCN(CC)CCNC(=O)c1c(C)[nH]c(/C=C2\C(=O)Nc3ccc(F)cc32)c1C
35

Ok, now COc1cc(Nc2c(C#N)cnc3cc(OCCCN4CCN(C)CC4)c(OC)cc23)c(Cl)cc1Cl
17

Entry C[C@@H](Oc1cc(-c2cnn(C3CCNCC3)c2)cnc1N)c1c(Cl)ccc(F)c1Cl please
7

Field entry: Cc1cn(-c2cc(NC(=O)c3ccc(C)c(Nc4nccc(-c5cccnc5)n4)c3)cc(C(F)(F)F)c2)cn1
3.39

----------
Test system: forty-four human cancer cell lines
Experiment: Cell proliferation assay (ATPlite, 72 hours) in the 44 cell line Oncolines panel
Format: cell-based
Experimental conditions: Homo sapiens, U2OS, read-out: cell panel IC50, U-2 OS
Record form. Attribute: log10 of IC50. Fill in for each entry.
Note: values are log10 of IC50 expressed in µM.

Given C[C@@H](Oc1cc(-c2cnn(C3CCNCC3)c2)cnc1N)c1c(Cl)ccc(F)c1Cl , state its recorded log10 of IC50.
0.30

What do we get for CNC(=O)c1cc(Oc2ccc(NC(=O)Nc3ccc(Cl)c(C(F)(F)F)c3)cc2)ccn1 ?
1.20

CN(C)C/C=C/C(=O)Nc1cc2c(Nc3ccc(F)c(Cl)c3)ncnc2cc1O[C@H]1CCOC1 , same question.
0.41

Follow-up item: Cc1ccc(C(=O)Nc2ccc(CN3CCN(C)CC3)c(C(F)(F)F)c2)cc1C#Cc1cnc2cccnn12
0.05

Next up: CS(=O)(=O)CCNCc1ccc(-c2ccc3ncnc(Nc4ccc(OCc5cccc(F)c5)c(Cl)c4)c3c2)o1
1.11

Queued: N#CC[C@H](C1CCCC1)n1cc(-c2ncnc3[nH]ccc23)cn1
1.40

----------
Assayed target: panel of more than 300 wild-type and mutant kinases (313 kinase panel) (Homo sapiens)
Experiment: Kinase profiling in a biochemical assay panel (mobility shift assays and ELISA), %-inhibition at 1 μM; selectivity entropy
Experimental conditions: kinase ROCK1; 1 μM
Quantity measured: %-inhibition of ROCK1

Field request: %-inhibition of ROCK1 | item: CCN(CC)CCNC(=O)c1c(C)[nH]c(/C=C2\C(=O)Nc3ccc(F)cc32)c1C [sunitinib]
9%

What would you report for COc1cc2c(Nc3ccc(Br)cc3F)ncnc2cc1OCC1CCN(C)CC1 [vandetanib] ?
-0.226%

Again, but for CC(=O)Nc1cccc(-n2c(=O)n(C3CC3)c(=O)c3c(Nc4ccc(I)cc4F)n(C)c(=O)c(C)c32)c1 [trametinib]
3.21%

Follow-up item: Cc1ccc(Nc2nccc(N(C)c3ccc4c(C)n(C)nc4c3)n2)cc1S(N)(=O)=O [pazopanib]
-1.24%

And the next one, CNC(=O)c1cc(Oc2ccc(NC(=O)Nc3ccc(Cl)c(C(F)(F)F)c3)c(F)c2)ccn1 [regorafenib] ?
11%

----------
Assayed target: panel of more than 300 wild-type and mutant kinases (313 kinase panel) (Homo sapiens, UniProt P28482)
Experiment: Kinase profiling in a biochemical assay panel (mobility shift assays and ELISA), %-inhibition at 1 μM; selectivity entropy
Experimental conditions: kinase Erk2; compound at 1 μM
Quantity measured: %-inhibition of Erk2 (%)
Supply the numeric figure in %, leaving out any unit text.

# get_value(readout='%-inhibition of Erk2', item= COc1cc2c(Nc3ccc(Br)cc3F)ncnc2cc1OCC1CCN(C)CC1 [vandetanib] )
-4

Check CS(=O)(=O)CCNCc1ccc(-c2ccc3ncnc(Nc4ccc(OCc5cccc(F)c5)c(Cl)c4)c3c2)o1 [lapatinib] too.
-7

Param item: Cc1ccc(Nc2nccc(N(C)c3ccc4c(C)n(C)nc4c3)n2)cc1S(N)(=O)=O [pazopanib]
-0.636

One more compound: O=S(=O)(c1cccc2cnccc12)N1CCCNCC1 [fasudil]
-7

Next record, please: C[C@@H](Oc1cc(-c2cnn(C3CCNCC3)c2)cnc1N)c1c(Cl)ccc(F)c1Cl [crizotinib]
-4.58

Consider next the compound CO[C@H]1C[C@@H]2CC[C@@H](C)[C@@](O)(O2)C(=O)C(=O)N2CCCC[C@H]2C(=O)O[C@H]([C@H](C)C[C@@H]2CC[C@@H](OCCO)[C@H](OC)C2)CC(=O)[C@H](C)/C=C(\C)[C@@H](O)[C@@H](OC)C(=O)[C@H](C)C[C@H](C)/C=C/C=C/C=C/1C [everolimus] in the same way.
-7.44

How about this compound: N#CC[C@H](C1CCCC1)n1cc(-c2ncnc3[nH]ccc23)cn1 [ruxolitinib]
-5.62

Next up: CC(=O)Nc1cccc(-n2c(=O)n(C3CC3)c(=O)c3c(Nc4ccc(I)cc4F)n(C)c(=O)c(C)c32)c1 [trametinib]
-5

What do you have for CO[C@H]1C[C@@H]2CC[C@@H](C)[C@@](O)(O2)C(=O)C(=O)N2CCCC[C@H]2C(=O)O[C@H]([C@H](C)C[C@@H]2CC[C@@H](OC(=O)C(C)(CO)CO)[C@H](OC)C2)CC(=O)[C@H](C)/C=C(\C)[C@@H](O)[C@@H](OC)C(=O)[C@H](C)C[C@H](C)/C=C/C=C/C=C/1C [temsirolimus] ?
-6

Proceed to Cc1cn(-c2cc(NC(=O)c3ccc(C)c(Nc4nccc(-c5cccnc5)n4)c3)cc(C(F)(F)F)c2)cn1 [nilotinib]
1.49

Now the compound CNC(=O)c1cc(Oc2ccc(NC(=O)Nc3ccc(Cl)c(C(F)(F)F)c3)c(F)c2)ccn1 [regorafenib]
-5

Check COc1cc2nccc(Oc3ccc(NC(=O)C4(C(=O)Nc5ccc(F)cc5)CC4)cc3)c2cc1OC [cabozantinib] too.
-8

And then CC(C)(C)c1nc(-c2cccc(NS(=O)(=O)c3c(F)cccc3F)c2F)c(-c2ccnc(N)n2)s1 [dabrafenib] , what is it?
-8

// repeat for CCCS(=O)(=O)Nc1ccc(F)c(C(=O)c2c[nH]c3ncc(-c4ccc(Cl)cc4)cc23)c1F [vemurafenib] and report
-4.58

Attribution: paper PMC3961306
